- Tested on: 422866-222-R5-J1-PDC complex spheroid viability
- protocolDescription: Anticancer human tumor 422866-222-R5-J1-PDC patient-derived pancreatic adenocarcinoma cell line growth inhibition [POLQ]
- settings: second compound 0.0316 µM; first compound 0.316 µM; stronger effect = lower value
Below is a list of entries, each paired with its recorded viability, T/C value.
Supply the numeric figure in %, leaving out any unit text.

Recorded results for 3 compounds are shown here.
COc1cc(C2c3cc4c(cc3C(OC3OC5COC(C)OC5C(O)C3O)C3COC(=O)C23)OCO4)cc(OC)c1O (stereo not given) + COC1C(OC(N)=O)C(O)C(Oc2ccc3c(O)c(NC(=O)c4ccc(O)c(CC=C(C)C)c4)c(=O)oc3c2C)OC1(C)C | 72.5
CC(C)n1c(=O)n(C)c2cnc3cc(F)c(-c4ccc(OCCCN5CCCCC5)nc4)cc3c21 + COC1C(OC(N)=O)C(O)C(Oc2ccc3c(O)c(NC(=O)c4ccc(O)c(CC=C(C)C)c4)c(=O)oc3c2C)OC1(C)C | 34.5
O=C(c1cc(Cc2n[nH]c(=O)c3ccccc23)ccc1F)N1CCN(C(=O)C2CC2)CC1 + COC1C(OC(N)=O)C(O)C(Oc2ccc3c(O)c(NC(=O)c4ccc(O)c(CC=C(C)C)c4)c(=O)oc3c2C)OC1(C)C | 42.3

Task: Item C=CCn1c(=O)c2cnc(Nc3ccc(N4CCN(C)CC4)cc3)nc2n1-c1cccc(C(C)(C)O)n1 + Nc1ccc(C#CCN(C(=O)Cc2ncc(C(F)(F)F)cc2C(F)(F)F)c2ccc(F)cc2)nn1 has what recorded viability, T/C?
Result: 47.8

Task: Try this compound too: CCCS(=O)(=O)Nc1ccc(F)c(C(=O)c2c[nH]c3ncc(-c4ccc(Cl)cc4)cc23)c1F + Cc1cccc(N(C)C(=O)C2C(O)CCN2c2nc(C)cc(C(F)(F)F)c2C#N)c1
Result: 122

----------
- Tested on: 422866-222-R5-J1-PDC complex spheroid viability
- protocolDescription: Anticancer human tumor 422866-222-R5-J1-PDC cell line growth inhibition [POLQ];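 also: spheroids exposed to compounds for one week before readout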
- settings: curve of first compound; second compound 0.316 µM
observedProperty: IC50

CC1COCCN1c1cc(-c2ccnn2C)c2ccnc(-c3ccn[nH]3)c2n1 (stereo not drawn) + Nc1ccc(C#CCN(C(=O)Cc2ncc(C(F)(F)F)cc2C(F)(F)F)c2ccc(F)cc2)nn1 | > 10 µM
COc1cccc(OCCCN)c1-c1cc(Nc2cnc(C#N)cn2)n[nH]1 + COC1C(OC(N)=O)C(O)C(Oc2ccc3c(O)c(NC(=O)c4ccc(O)c(CC=C(C)C)c4)c(=O)oc3c2C)OC1(C)C | < 0.00316 µM

Task: Item CC1COCCN1c1cc(-c2ccnn2C)c2ccnc(-c3ccn[nH]3)c2n1 (stereo not drawn) + Cc1cccc(N(C)C(=O)C2C(O)CCN2c2nc(C)cc(C(F)(F)F)c2C#N)c1 has what recorded IC50?
Result: > 10 µM

----------
- System: 422866-222-R5-J1-PDC complex spheroid viability
- protocolDescription: Anticancer human tumor 422866-222-R5-J1-PDC cell line growth inhibition [POLQ];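 also: spheroids exposed to compounds for one week before readout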;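 as to viability, T/C: percent of DMSO vehicle wells luminescence so 100% = untreated viability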
- settings: second compound 10 µM; first compound 0.1 µM; stronger effect = lower value
Below is a list of entries, each paired with its recorded viability, T/C value.
Supply the numeric figure in %, leaving out any unit text.

Recorded results for 3 compounds are shown here.
COc1ccc([C@@H](O)c2cc(-c3ncnc4cc(N5CCOCC5)ccc34)c(F)cc2Cl)nn1 + Nc1ccc(C#CCN(C(=O)Cc2ncc(C(F)(F)F)cc2C(F)(F)F)c2ccc(F)cc2)nn1 | 100
CCc1cc2c(N3CCc4c(cc(Cn5ccnc5)cc4-c4cn(C)nc4C(F)(F)F)C3=O)cc(C)nc2c(OC)n1 + Cc1cccc(N(C)C(=O)C2C(O)CCN2c2nc(C)cc(C(F)(F)F)c2C#N)c1 | 88.5
Cn1ncnc1[C@H]1c2n[nH]c(=O)c3cc(F)cc(c23)N[C@@H]1c1ccc(F)cc1 + Cc1cccc(N(C)C(=O)C2C(O)CCN2c2nc(C)cc(C(F)(F)F)c2C#N)c1 | 83.2

Task: Item CCCS(=O)(=O)Nc1ccc(F)c(C(=O)c2c[nH]c3ncc(-c4ccc(Cl)cc4)cc23)c1F + Nc1ccc(C#CCN(C(=O)Cc2ncc(C(F)(F)F)cc2C(F)(F)F)c2ccc(F)cc2)nn1 has what recorded viability, T/C?
Result: 138

Task: Try this compound too: O=c1[nH]cc(F)c(=O)[nH]1 + Cc1cccc(N(C)C(=O)C2C(O)CCN2c2nc(C)cc(C(F)(F)F)c2C#N)c1
Result: 88.8
